Each recorded value in this set is attributed to paper PMC6201908.

Molecular target: human recombinant NK2 receptors (Homo sapiens, UniProt P21452)
Sequence (P21452 1-398): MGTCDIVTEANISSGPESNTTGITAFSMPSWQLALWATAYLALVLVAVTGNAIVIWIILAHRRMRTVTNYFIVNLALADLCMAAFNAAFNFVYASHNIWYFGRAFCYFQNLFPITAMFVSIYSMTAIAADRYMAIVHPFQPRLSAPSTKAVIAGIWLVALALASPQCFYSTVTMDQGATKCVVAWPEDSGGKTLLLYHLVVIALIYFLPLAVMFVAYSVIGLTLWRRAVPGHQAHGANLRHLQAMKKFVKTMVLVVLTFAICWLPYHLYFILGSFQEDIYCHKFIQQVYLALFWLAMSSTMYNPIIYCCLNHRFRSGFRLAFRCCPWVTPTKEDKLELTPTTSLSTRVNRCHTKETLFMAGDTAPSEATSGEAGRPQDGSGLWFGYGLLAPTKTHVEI
Assay: cell-based
Conditions: Intracellular Ca^2+ pEC50, CHO-hNK2 cells; mean ± SD
Protocol: Human recombinant NK2 and NK1 receptors were generated using stably transfected CHO cells (CHO-hNK2 and CHO-hNK1, respectively). […] The agonist efficacy of the test compounds at recombinant human NK1 or NK2 receptors expressed in CHO cells was assessed by measuring the intracellular calcium response using the calcium-sensitive dye Fluo-4 AM (Eugene, OR, USA) and a Fluorometric Imaging Plate Reader (FLIPR, Molecular Devices, CA, USA). […]
Non-standard residues stand in square brackets, D forms with d. Residues, ends and D or L forms follow the SMILES beside them. NMeL = CN[C@@H](CC(C)C)C(=O)O; Nle = CCCC[C@H](N)C(=O)O; βAla = NCCC(=O)O
Assignment: determine reported EC50 for the given compounds.
Just the number in nM, nothing appended.

Lab book: EC50 of CSCC[C@H](NC(=O)[C@H](CC(C)C)NC(=O)CCNC(=O)[C@@H](NC(=O)[C@H](Cc1ccccc1)NC(=O)[C@H](CO)NC(=O)[C@@H](N)CC(=O)O)C(C)C)C(N)=O [[β-Ala^8]-NKA(4–10), Asp-Ser-Phe-Val-[β-Ala]-Leu-Met-NH2] (H-DSFV[βAla]LM-NH2) noted as 0.871

Lab book: EC50 of CSCC[C@H](NC(=O)[C@H](CC(C)C)NC(=O)CCNC(=O)[C@@H](NC(=O)[C@H](Cc1ccccc1)NC(=O)[C@H](CCCCN)NC(=O)[C@@H](N)CC(=O)O)C(C)C)C(N)=O [[Lys^5,β-Ala^8]-NKA(4–10), Asp-Lys-Phe-Val-[β-Ala]-Leu-Met-NH2] (H-DKFV[βAla]LM-NH2) noted as 0.174

Lab book: EC50 of CSCC[C@H](NC(=O)[C@H](CC(C)C)N(C)C(=O)CNC(=O)[C@@H](NC(=O)[C@H](Cc1ccccc1)NC(=O)[C@H](CCCNC(=N)N)NC(=O)[C@@H](N)CC(=O)O)C(C)C)C(N)=O [[Arg^5,MeLeu^9]-NKA(4-10), Asp-Arg-Phe-Val-Gly-(NMe-Leu)-Met-NH2] (H-DRFVG[NMeL]M-NH2) noted as 0.162

Lab book: EC50 of CCCC[C@H](NC(=O)[C@H](CC(C)C)NC(=O)CNC(=O)[C@@H](NC(=O)[C@H](Cc1ccccc1)NC(=O)[C@H](CCCCN)NC(=O)[C@@H](N)CC(=O)O)C(C)C)C(N)=O [[Lys^5,Nle^10]-NKA(4–10), Asp-Lys-Phe-Val-Gly-Leu-Nle-NH2] noted as 0.38

Lab book: EC50 of CSCC[C@H](NC(=O)[C@H](CC(C)C)NC(=O)CNC(=O)[C@@H](NC(=O)[C@H](Cc1ccccc1)NC(=O)[C@H](CCCCN)NC(=O)[C@@H](N)CC(=O)O)C(C)C)C(N)=O [[Lys^5]-NKA(4–10), Asp-Lys-Phe-Val-Gly-Leu-Met-NH2] noted as 0.0891

Lab book: EC50 of CCCC[C@H](NC(=O)[C@H](CC(C)C)NC(=O)CNC(=O)[C@@H](NC(=O)[C@H](Cc1ccccc1)NC(=O)[C@H](CCCNC(=N)N)NC(=O)[C@@H](N)CC(=O)O)C(C)C)C(N)=O [[Arg^5,Nle^10]-NKA(4–10), Asp-Arg-Phe-Val-Gly-Leu-Nle-NH2] (H-DRFVGL[Nle]-NH2) noted as 0.2

Lab book: EC50 of CSCC[C@H](NC(=O)[C@H](CC(C)C)NC(=O)CNC(=O)[C@@H](NC(=O)[C@H](Cc1ccccc1)NC(=O)[C@H](CCCNC(=N)N)NC(=O)[C@@H](N)CC(=O)O)C(C)C)C(N)=O [[Arg^5]-NKA(4–10), Asp-Arg-Phe-Val-Gly-Leu-Met-NH2] (H-DRFVGLM-NH2) noted as 0.191

Lab book: EC50 of CSCC[C@H](NC(=O)[C@H](CC(C)C)NC(=O)CNC(=O)[C@@H](NC(=O)[C@H](Cc1ccccc1)NC(=O)[C@H](CO)NC(=O)[C@@H](N)CC(=O)O)C(C)C)C(N)=O noted as 1.02
